Target: UniProtKB P03372
Sequence (P03372 whole entry, the tested form may be a part): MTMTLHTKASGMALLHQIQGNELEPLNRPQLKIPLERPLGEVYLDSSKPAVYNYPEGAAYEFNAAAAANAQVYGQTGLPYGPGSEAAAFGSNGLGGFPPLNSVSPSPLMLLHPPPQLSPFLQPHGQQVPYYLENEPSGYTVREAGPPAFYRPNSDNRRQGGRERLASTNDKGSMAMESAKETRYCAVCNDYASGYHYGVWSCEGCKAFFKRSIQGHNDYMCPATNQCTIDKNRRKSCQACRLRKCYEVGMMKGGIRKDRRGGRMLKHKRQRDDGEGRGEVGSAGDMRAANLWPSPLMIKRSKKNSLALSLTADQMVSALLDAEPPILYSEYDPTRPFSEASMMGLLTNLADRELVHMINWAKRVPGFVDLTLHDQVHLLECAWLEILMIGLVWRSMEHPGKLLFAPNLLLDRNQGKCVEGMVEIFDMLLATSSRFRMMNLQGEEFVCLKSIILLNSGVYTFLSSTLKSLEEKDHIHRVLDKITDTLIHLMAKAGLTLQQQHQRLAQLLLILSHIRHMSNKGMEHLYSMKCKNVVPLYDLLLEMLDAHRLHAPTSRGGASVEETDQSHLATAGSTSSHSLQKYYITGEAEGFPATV
Assay: Inhibition of human Gal4-fused ER alpha expressed in 293FT cells after 24 hrs by luciferase reporter gene assay
pIC50: −log10 of the molar value.
Endpoint Name: pIC50

Prompt: Under UniProtKB P03372: pIC50 value of Cc1ccc2c(c1)nc(CCN1C(=O)c3cccc4cccc(c34)C1=O)n2-c1ccncc1 ?
Completion: < 4.70

---

Molecular target: cGMP-inhibited 3',5'-cyclic phosphodiesterase 3A (Homo sapiens)
Sequence (Q14432 whole entry): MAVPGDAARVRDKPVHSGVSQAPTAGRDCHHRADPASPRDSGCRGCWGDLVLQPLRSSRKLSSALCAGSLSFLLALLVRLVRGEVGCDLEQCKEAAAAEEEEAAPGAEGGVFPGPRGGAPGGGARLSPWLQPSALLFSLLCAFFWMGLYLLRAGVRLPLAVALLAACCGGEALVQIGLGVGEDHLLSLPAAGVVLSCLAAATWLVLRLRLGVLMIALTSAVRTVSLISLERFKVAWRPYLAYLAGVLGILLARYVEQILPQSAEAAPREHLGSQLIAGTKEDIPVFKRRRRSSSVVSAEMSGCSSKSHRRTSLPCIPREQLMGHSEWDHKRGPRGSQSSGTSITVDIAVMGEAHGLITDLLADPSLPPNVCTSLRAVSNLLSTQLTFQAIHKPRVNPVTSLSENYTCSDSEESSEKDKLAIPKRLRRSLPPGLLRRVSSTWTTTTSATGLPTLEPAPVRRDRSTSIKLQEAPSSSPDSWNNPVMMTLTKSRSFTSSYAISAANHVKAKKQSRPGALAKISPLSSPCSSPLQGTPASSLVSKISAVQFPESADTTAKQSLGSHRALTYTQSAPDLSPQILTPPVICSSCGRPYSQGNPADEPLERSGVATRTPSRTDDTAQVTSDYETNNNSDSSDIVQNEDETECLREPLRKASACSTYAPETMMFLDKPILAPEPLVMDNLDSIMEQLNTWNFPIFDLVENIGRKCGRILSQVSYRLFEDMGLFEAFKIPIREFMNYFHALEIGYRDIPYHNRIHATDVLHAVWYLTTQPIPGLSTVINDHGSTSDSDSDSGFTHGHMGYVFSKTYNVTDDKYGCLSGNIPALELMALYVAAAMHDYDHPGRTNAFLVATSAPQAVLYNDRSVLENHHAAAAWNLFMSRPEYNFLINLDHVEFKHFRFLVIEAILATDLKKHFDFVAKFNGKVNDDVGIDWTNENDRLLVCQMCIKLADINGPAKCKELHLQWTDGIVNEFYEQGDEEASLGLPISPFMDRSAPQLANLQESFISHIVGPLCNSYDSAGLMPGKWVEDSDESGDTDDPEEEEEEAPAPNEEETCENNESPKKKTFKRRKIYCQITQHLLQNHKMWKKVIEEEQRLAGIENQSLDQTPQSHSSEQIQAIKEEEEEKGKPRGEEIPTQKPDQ
Endpoint Name: IC50

Prompt: Value wanted: IC50 (cGMP-inhibited 3',5'-cyclic phosphodiesterase 3A (Homo sapiens)) of entry Cc1ccc2c(c1)nc(CCN1C(=O)c3cccc4cccc(c34)C1=O)n2-c1ccncc1
Completion: > 20 µM

Ref: ChEMBL document CHEMBL4354796
